Every entry's value here was drawn from paper PMC10488391.

Tested on: SARS-CoV-2
assay notes: Virus titer reduction assay
Format: cell-based
condition notes: Severe acute respiratory syndrome coronavirus 2; SARS-CoV-2 in Vero cells; normalized log-transformed response; read-out: App. EC50, calculated from log-transformed viral titers (converted)

[
  {
    "line notation": "Oc1ccc(C#Cc2ccc3c4cccc5cccc(c6cccc2c63)c54)cc1",
    "EC50": "1790 nM"
  },
  {
    "line notation": "Oc1cccc(C#Cc2cc3cccc4c5cccc6cccc(c(c2)c34)c65)c1",
    "EC50": "1580 nM"
  },
  {
    "line notation": "Oc1ccc(C#Cc2cc3cccc4c5cccc6cccc(c(c2)c34)c65)cc1",
    "EC50": "2220 nM"
  },
  {
    "line notation": "Oc1cccc(C#Cc2ccc3c4cccc5cccc(c6cccc2c63)c54)c1",
    "EC50": "506 nM"
  },
  {
    "line notation": "Oc1ccc(C#Cc2ccc3c4cccc5cccc(c6cccc2c63)c54)cc1Br",
    "EC50": "1100 nM"
  },
  {
    "line notation": "Oc1ccc(C#Cc2cc3cccc4c5cccc6cccc(c(c2)c34)c65)cc1Br",
    "EC50": "2680 nM"
  }
]

---

assay notes: Singlet oxygen generation quantum yield (SOSG fluorescence)
Format: physicochemical
condition notes: in methanol, illumination 430–450 nm, 5.5 mW/cm^2, reference PS C1T11
quantity name: ϕΔ(1O2), singlet oxygen generation quantum yield

[
  {
    "line notation": "Oc1ccc(C#Cc2ccc3c4cccc5cccc(c6cccc2c63)c54)cc1",
    "assay result": 0.422
  },
  {
    "line notation": "Oc1cccc(C#Cc2ccc3c4cccc5cccc(c6cccc2c63)c54)c1",
    "assay result": 0.451
  },
  {
    "line notation": "Oc1ccc(C#Cc2cc3cccc4c5cccc6cccc(c(c2)c34)c65)cc1Br",
    "assay result": 0.332
  },
  {
    "line notation": "Oc1ccc(C#Cc2ccc3c4cccc5cccc(c6cccc2c63)c54)cc1Br",
    "assay result": 0.282
  },
  {
    "line notation": "Oc1ccc(C#Cc2cc3cccc4c5cccc6cccc(c(c2)c34)c65)cc1",
    "assay result": 0.297
  },
  {
    "line notation": "Oc1cccc(C#Cc2cc3cccc4c5cccc6cccc(c(c2)c34)c65)c1",
    "assay result": 0.460
  }
]

---

Test system: SARS-CoV-2
assay notes: Virus titer reduction assay
Assay type: cell-based
condition notes: Severe acute respiratory syndrome coronavirus 2; Vero cells; MOI 0.1; 48 h p.i.; normal lighting; 50% reduction in viral titer; read-out: SARS-CoV-2 EC50
quantity name: log10 of EC50 (log10 of the value in nM)

[
  {
    "line notation": "Oc1ccc(C#Cc2cc3cccc4c5cccc6cccc(c(c2)c34)c65)cc1Br",
    "target of assay": "SARS-CoV-2",
    "log10 of EC50": 2.72
  },
  {
    "line notation": "Oc1cccc(C#Cc2cc3cccc4c5cccc6cccc(c(c2)c34)c65)c1",
    "target of assay": "SARS-CoV-2",
    "log10 of EC50": 2.54
  },
  {
    "line notation": "Oc1ccc(C#Cc2cc3cccc4c5cccc6cccc(c(c2)c34)c65)cc1",
    "target of assay": "SARS-CoV-2",
    "log10 of EC50": 2.79
  },
  {
    "line notation": "Oc1ccc(C#Cc2ccc3c4cccc5cccc(c6cccc2c63)c54)cc1",
    "target of assay": "SARS-CoV-2",
    "log10 of EC50": 2.08
  },
  {
    "line notation": "Oc1cccc(C#Cc2ccc3c4cccc5cccc(c6cccc2c63)c54)c1",
    "target of assay": "SARS-CoV-2",
    "log10 of EC50": 1.71
  },
  {
    "line notation": "Oc1ccc(C#Cc2ccc3c4cccc5cccc(c6cccc2c63)c54)cc1Br",
    "target of assay": "SARS-CoV-2",
    "log10 of EC50": 2.36
  }
]
